target: Serotonin 3 (5-HT3) receptor (Rattus norvegicus, UniProt P35563+Q9JJ16); test: Displacement of the 5-hydroxytryptamine 3 receptor ligand [3H]GR-65630 from rat brain cortical membranes.
pKi: −log10 of the molar value.
Returns one of TRUE or FALSE; TRUE when pKi is >= 7.

INSERT INTO assay_data (molecule, classification) VALUES
  ('COc1c(C(=O)NC2CN3CCC2CC3)cc(Cl)cc1C1CCCCC1 (stereo unspecified)', 'TRUE'),
  ('CCN(CC)CCNC(=O)c1cc(Cl)c(N)cc1OC [METOCLOPRAMIDE]', 'FALSE'),
  ('O=C(NC1CN2CCC1CC2)c1cc(Cl)cc2c1OCCCCC2 (stereo unspecified)', 'TRUE'),
  ('O=C(NC1CN2CCC1CC2)c1cc(Cl)cc2c1OC1(CCCCC1)C2 (stereo unspecified)', 'TRUE');

---

Target: Serotonin 3 (5-HT3) receptor (Rattus norvegicus, UniProt P35563+Q9JJ16)
Sequence (P35563 whole entry): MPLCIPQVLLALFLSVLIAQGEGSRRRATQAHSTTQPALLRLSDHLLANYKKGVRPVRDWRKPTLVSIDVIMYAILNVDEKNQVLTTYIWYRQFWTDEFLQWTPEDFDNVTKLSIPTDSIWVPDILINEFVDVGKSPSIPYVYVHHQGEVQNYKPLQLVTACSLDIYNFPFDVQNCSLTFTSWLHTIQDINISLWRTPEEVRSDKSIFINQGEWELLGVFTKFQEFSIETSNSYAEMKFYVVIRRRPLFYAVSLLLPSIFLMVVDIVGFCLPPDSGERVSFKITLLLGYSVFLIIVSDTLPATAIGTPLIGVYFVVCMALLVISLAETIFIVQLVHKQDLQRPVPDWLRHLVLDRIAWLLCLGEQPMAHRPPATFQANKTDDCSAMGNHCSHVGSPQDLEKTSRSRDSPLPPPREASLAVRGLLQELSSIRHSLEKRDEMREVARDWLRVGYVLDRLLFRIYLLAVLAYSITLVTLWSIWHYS
Sequence (Q9JJ16 whole entry): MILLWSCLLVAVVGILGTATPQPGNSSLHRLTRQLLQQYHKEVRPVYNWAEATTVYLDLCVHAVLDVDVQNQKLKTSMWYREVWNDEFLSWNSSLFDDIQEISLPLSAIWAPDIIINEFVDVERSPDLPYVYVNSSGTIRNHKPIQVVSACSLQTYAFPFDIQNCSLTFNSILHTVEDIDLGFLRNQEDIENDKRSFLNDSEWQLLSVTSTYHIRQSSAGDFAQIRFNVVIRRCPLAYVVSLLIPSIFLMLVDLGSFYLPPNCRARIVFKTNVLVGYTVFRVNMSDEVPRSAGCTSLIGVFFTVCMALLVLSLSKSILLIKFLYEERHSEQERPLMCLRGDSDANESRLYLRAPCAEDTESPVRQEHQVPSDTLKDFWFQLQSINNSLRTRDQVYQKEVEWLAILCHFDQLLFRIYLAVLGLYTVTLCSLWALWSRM
Assay: Displacement of the 5-hydroxytryptamine 3 receptor ligand [3H]GR-65630 from rat brain cortical membranes.
Classification by Ki | ranges: low = under 1 nM, middle = from 1 nM up to 10 nM, high = 10 nM and over

INSERT INTO measurements (compound, classification) VALUES
  ('O=C(NC1CN2CCC1CC2)c1cc(Br)cc2c1OCCCC2 (stereo not given)', 'middle'),
  ('COc1ccc(Cl)cc1C(=O)NC1CN2CCC1CC2 (stereo not given)', 'high'),
  ('O=C(N[C@@H]1CN2CCC1CC2)c1cc(Cl)cc2c1OC1(CCCCC1)C2', 'low'),
  ('CC1(C)CCCc2cc(Cl)cc(C(=O)NC3CN4CCC3CC4)c2O1 (stereo not given)', 'high'),
  ('Nc1c(Cl)cc2c(c1C(=O)NC1CN3CCC1CC3)OCCCC2 (stereo not given)', 'high'),
  ('COc1cc(N)c(Cl)cc1C(=O)NC1CN2CCC1CC2 (stereo not given) [ZACOPRIDE]', 'middle'),
  ('O=C(NC1CN2CCC1CC2)c1cc(Cl)cc2c1OCCCC2 (stereo not given)', 'middle'),
  ('O=C(N[C@H]1CN2CCC1CC2)c1cc(Cl)cc2c1OC1(CCCCC1)C2', 'low'),
  ('O=C(NC1CN2CCC1CC2)c1cccc2c1OCCCC2 (stereo not given)', 'high'),
  ('CN1CC2CCC1CC(OC(=O)c1c[nH]c3ccccc13)C2 (stereo not given)', 'middle');
